# PROTOCOL: Aqueous solubility by lyophilization solubility assay
# Type: physicochemical
QUANTITY_KIND: solubility

Some solved entries appear below for comparison.
{"STRUCTURE_NOTATION": "CO/C(C)=C1/NC(=O)[C@H]([C@@H](C)O)NC(=O)c2csc(n2)-c2cc(O)c(-c3nc(C(=O)NCC(=O)N4CCN(C)CC4)cs3)nc2-c2csc(n2)[C@@H]2COC(=O)c3c4c5c(cccc5n3O)COC(=O)[C@@H](O[C@H]3C[C@](C)(O)[C@H](N(C)C)[C@H](C)O3)[C@@H](OC4)[C@H](NC(=O)c3csc1n3)c1nc(cs1)C(=O)N2.O=C(O)C(F)(F)F", "QUANTITY_KIND": "solubility", "READING": "> 10000 µg/mL"}
{"STRUCTURE_NOTATION": "CO/C(C)=C1/NC(=O)[C@H]([C@@H](C)O)NC(=O)c2csc(n2)-c2cc(O)c(-c3nc(C(=O)NCCCN4CCN(C)CC4)cs3)nc2-c2csc(n2)[C@@H]2COC(=O)c3c4c5c(cccc5n3O)COC(=O)[C@@H](O[C@H]3C[C@](C)(O)[C@H](N(C)C)[C@H](C)O3)[C@@H](OC4)[C@H](NC(=O)c3csc1n3)c1nc(cs1)C(=O)N2.O=C(O)C(F)(F)F", "QUANTITY_KIND": "solubility", "READING": "> 10000 µg/mL"}
{"STRUCTURE_NOTATION": "CO/C(C)=C1/NC(=O)[C@H]([C@@H](C)O)NC(=O)c2csc(n2)-c2cc(O)c(-c3nc(C(=O)N(C)CCN(C)C)cs3)nc2-c2csc(n2)[C@@H]2COC(=O)c3c4c5c(cccc5n3O)COC(=O)[C@@H](O[C@H]3C[C@](C)(O)[C@H](N(C)C)[C@H](C)O3)[C@@H](OC4)[C@H](NC(=O)c3csc1n3)c1nc(cs1)C(=O)N2.O=C(O)C(F)(F)F", "QUANTITY_KIND": "solubility", "READING": "> 10000 µg/mL"}
{"STRUCTURE_NOTATION": "CO/C(C)=C1/NC(=O)[C@H]([C@@H](C)O)NC(=O)c2csc(n2)-c2cc(O)c(-c3nc(C(=O)NCCNC(=O)CN4CCOCC4)cs3)nc2-c2csc(n2)[C@@H]2COC(=O)c3c4c5c(cccc5n3O)COC(=O)[C@@H](O[C@H]3C[C@](C)(O)[C@H](N(C)C)[C@H](C)O3)[C@@H](OC4)[C@H](NC(=O)c3csc1n3)c1nc(cs1)C(=O)N2.O=C(O)C(F)(F)F", "QUANTITY_KIND": "solubility", "READING": "> 10000 µg/mL"}

Shifting focus to the compound that follows.
// query Could you tell me which solubility is on file for CO/C(C)=C1/NC(=O)[C@H]([C@@H](C)O)NC(=O)c2csc(n2)-c2cc(O)c(-c3nc(C(=O)NCCNC(=O)CN(C)C)cs3)nc2-c2csc(n2)[C@@H]2COC(=O)c3c4c5c(cccc5n3O)COC(=O)[C@@H](O[C@H]3C[C@](C)(O)[C@H](N(C)C)[C@H](C)O3)[C@@H](OC4)[C@H](NC(=O)c3csc1n3)c1nc(cs1)C(=O)N2.O=C(O)C(F)(F)F ?
// result > 10000 µg/mL
